test target: NADH oxidase (tNOX) of HeLa cells (Homo sapiens)
Construct: endogenous in cells; host or cells: HeLa (ATCC CCL2)
Sequence (Q16206 whole entry): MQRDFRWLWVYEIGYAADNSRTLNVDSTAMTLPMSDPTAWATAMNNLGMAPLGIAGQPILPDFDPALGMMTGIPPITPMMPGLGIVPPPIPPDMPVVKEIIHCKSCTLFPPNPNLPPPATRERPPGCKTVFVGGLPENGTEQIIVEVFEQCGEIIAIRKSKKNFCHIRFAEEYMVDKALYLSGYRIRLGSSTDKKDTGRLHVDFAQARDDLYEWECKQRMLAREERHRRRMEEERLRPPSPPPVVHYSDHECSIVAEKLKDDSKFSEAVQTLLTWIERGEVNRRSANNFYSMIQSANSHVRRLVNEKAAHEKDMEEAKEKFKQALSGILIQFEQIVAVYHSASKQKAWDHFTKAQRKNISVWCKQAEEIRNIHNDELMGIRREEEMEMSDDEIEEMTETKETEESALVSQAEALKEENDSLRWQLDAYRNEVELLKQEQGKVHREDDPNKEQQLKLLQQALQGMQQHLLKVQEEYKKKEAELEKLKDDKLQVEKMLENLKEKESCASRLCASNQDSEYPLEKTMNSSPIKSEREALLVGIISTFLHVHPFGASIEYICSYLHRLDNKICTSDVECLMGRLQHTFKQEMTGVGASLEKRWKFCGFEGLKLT
procedure details: inhibition of NADH oxidase (tNOX) activity of HeLa cells
Assay type: biochemical
condition parameters: HeLa, 1.5 × 10^6 cells (Table 2); read-out: EC50(M), inhibition of NADH oxidase
Excerpt: […] NADH oxidase activity may be monitored and measured by virtue of the decrease in absorbance at 340 nm wavelength. […]
Where a name gives a salt, the structure may show the parent alone.
quantity name: EC50 (M)
Answers are plain numbers, in M.

Reported EC50 for COc1cc(CN)ccc1O [Vanillylamine, hydrochloride] : what is it?
1e-09
